Tested on: wheat (Triticum aestivum)
protocol.description: Herbicidal effect test by soil treatment
Assay type: in vivo
experimental.context: crop plant, application amount 1.6 g/a, three weeks after spraying
property.measured: herbicidal effect, W (Triticum vulgare)

Give me herbicidal effect, W (Triticum vulgare) for each of these molecules, listed below.
1. O=C1COc2cc(F)c(N3C(=O)CC(C(F)(F)F)CC3=O)cc2N1CC1CCCCC1
2. CC(C)OC(=O)c1cc(N2C(=O)CC(C(C)C)C(C)C2=O)c(F)cc1Cl (stereo not drawn)

Reply |
1: 2 (Growth control rates of 20 to 40%); 2: 1 (Growth control rates of 5 to 20%)

###

Tested on: soybean (Glysine max)
protocol.description: Herbicidal effect test by soil treatment
Assay type: in vivo
experimental.context: crop plant, application amount 1.6 g/a, three weeks after spraying
Excerpt: In a plastic box of 15 cm length, 22 cm width and 6 cm depth, there was placed a sterilized dilvial soil, and seeds of barnyardgrass (Echinochloa crusgalli), large crabgrass (Digitaria adscendens), annual sedge (Cyperus microiria), black nightshade (Solanum nigrum L.), hairly galinosoga (Galinsoga ciliat), rorippa ssp. (Rorippa atrovirens), rice (Oryza sativa), corn (Zea mays), wheat (Triticum aestivum), soybean (Glysine max) and cotton (Gossypium herbaceum) were sown mixedly. […]
property.measured: herbicidal effect, S (Glysine max)

Ask | I am curious: what herbicidal effect, S (Glysine max) value has been reported for C#CCN1C(=O)COc2ccc(N3C(=O)CC(C(F)(F)F)CC3=O)cc21 [1-24] ?
Reply | 1 (Growth control rates of 5 to 20%)
